molecular target: NCK1-3 SH3 domain (aa 190–252) (Homo sapiens); construct: 190–252; GST (N); made in house; host or cells: Escherichia coli CodonPlus, Rosetta, BL21(DE3); experiment: Fluorescence polarization SH3 domain-PRP binding; details: NCK1-3 (wt); FP, 0.2 µM fluorescein-labeled peptide, SH3 domain 0-200 µM, Tris/HCl pH 7.5, 25 °C, quadratic fit; read-out: Kd
Peptide text beside a SMILES is read from it.
// values below are reported Kd
observation.type: Kd

[[record]]
compound = "CC(C)C[C@H](NC(=O)[C@@H](NC(=O)[C@@H](N)C(C)C)[C@@H](C)O)C(=O)N1CCC[C@H]1C(=O)N[C@@H](Cc1c[nH]cn1)C(=O)NCC(=O)N1CCC[C@H]1C(=O)N[C@@H](CCCNC(=N)N)C(=O)N[C@@H](CO)C(=O)N[C@@H](C)C(=O)O [Peptide P2] (H-VTLPHGPRSA-OH)"
endpoint_result = "> 200 µM"

[[record]]
compound = "CC[C@H](C)[C@H](NC(=O)[C@H](Cc1c[nH]cn1)NC(=O)[C@@H](N)CCC(N)=O)C(=O)N1CCC[C@H]1C(=O)N[C@@H](CCCCN)C(=O)N[C@@H](CC(C)C)C(=O)N1CCC[C@H]1C(=O)N1CCC[C@H]1C(=O)N[C@@H](CCCCN)C(=O)N[C@H](C(=O)N[C@@H](Cc1ccc(O)cc1)C(=O)O)[C@@H](C)O [Peptide P10] (H-QHIPKLPPKTY-OH; N-terminus and C-terminus assumed)"
endpoint_result = "> 200 µM"

[[record]]
compound = "CC[C@H](C)[C@H](NC(=O)[C@H](C)NC(=O)[C@@H]1CCCN1C(=O)[C@@H]1CCCN1C(=O)[C@H](CO)NC(=O)[C@H](CC(=O)O)NC(=O)[C@@H](N)CC(C)C)C(=O)N1CCC[C@H]1C(=O)N1CCC[C@H]1C(=O)N[C@@H](CCCNC(=N)N)C(=O)N[C@@H](CCC(N)=O)C(=O)N1CCC[C@H]1C(=O)N[C@H](C(=O)N[C@@H](CO)C(=O)N[C@@H](CCCCN)C(=O)O)[C@@H](C)O [Peptide P4] (H-LDSPPAIPPRQPTSK-OH)"
endpoint_result = "> 200 µM"

[[record]]
compound = "CC(C)[C@H](N)C(=O)N1CCC[C@H]1C(=O)N[C@H](C(=O)N1CCC[C@H]1C(=O)N1CCC[C@H]1C(=O)N1CCC[C@H]1C(=O)N[C@H](C(=O)N1CCC[C@H]1C(=O)N1CCC[C@H]1C(=O)N[C@@H](CCCNC(=N)N)C(=O)N[C@@H](CCCNC(=N)N)C(=O)N[C@@H](CCCNC(=N)N)C(=O)O)C(C)C)C(C)C [RP1, reference compound]"
endpoint_result = "24.6 µM"

[[record]]
compound = "CC(C)C[C@H](NC(=O)[C@@H]1CCCN1C(=O)[C@@H](NC(=O)[C@H](CCCNC(=N)N)NC(=O)[C@@H]1CCCN1C(=O)[C@H](CO)NC(=O)[C@H](CC(N)=O)NC(=O)[C@@H]1CCCN1C(=O)[C@H](C)NC(=O)[C@@H](N)CO)[C@@H](C)O)C(=O)N[C@H](C(=O)N1CCC[C@H]1C(=O)N1CCC[C@H]1C(=O)N1CCC[C@H]1C(=O)N[C@@H](C)C(=O)N[C@@H](CO)C(=O)O)[C@@H](C)O [Peptide P1] (H-SAPNSPRTPLTPPPAS-OH)"
endpoint_result = "> 200 µM"

[[record]]
compound = "CC(C)C[C@H](NC(=O)[C@H](Cc1c[nH]cn1)NC(=O)[C@H](CC(C)C)NC(=O)[C@@H]1CCCN1C(=O)[C@H](CO)NC(=O)[C@H](CO)NC(=O)[C@@H](N)CO)C(=O)N[C@@H](CCC(N)=O)C(=O)N1CCC[C@H]1C(=O)N1CCC[C@H]1C(=O)N1CCC[C@H]1C(=O)N[C@@H](CC(C)C)C(=O)NCC(=O)N[C@@H](CCCCN)C(=O)N[C@@H](CCCCN)C(=O)O [Peptide P6] (H-SSSPLHLQPPPLGKK-OH; N-terminus and C-terminus assumed)"
endpoint_result = "> 200 µM"

[[record]]
compound = "CC(C)[C@H](NC(=O)[C@@H]1CCCN1C(=O)[C@@H]1CCCN1C(=O)[C@H](C)NC(=O)[C@H](CCC(=O)O)NC(=O)[C@H](CS)NC(=O)[C@@H](N)CCCNC(=N)N)C(=O)N1CCC[C@H]1C(=O)N1CCC[C@H]1C(=O)N[C@@H](CCCNC(=N)N)C(=O)N[C@@H](CCCNC(=N)N)C(=O)N[C@@H](CCC(=O)O)C(=O)N[C@@H](CCCNC(=N)N)C(=O)NCC(=O)O [RP2, reference compound] (H-RCEAPPVPPRRERG-OH)"
endpoint_result = "2.5 µM"

[[record]]
compound = "CC(C)C[C@H](NC(=O)[C@@H]1CCCN1C(=O)[C@@H]1CCCN1C(=O)[C@H](CO)NC(=O)[C@@H]1CCCN1C(=O)[C@H](CC(C)C)NC(=O)[C@H](Cc1c[nH]cn1)NC(=O)[C@@H](N)CCCNC(=N)N)C(=O)N[C@H](C(=O)N[C@@H](CCC(N)=O)C(=O)O)[C@@H](C)O [Peptide P8] (H-RHLPSPPLTQ-OH; N-terminus and C-terminus assumed)"
endpoint_result = "> 200 µM"

